These measurements were taken from ChEMBL document CHEMBL1781956.

# Assay Target: Peroxisome proliferator-activated receptor gamma (Homo sapiens) (UniProt P37231)
# Sequence (P37231 whole entry): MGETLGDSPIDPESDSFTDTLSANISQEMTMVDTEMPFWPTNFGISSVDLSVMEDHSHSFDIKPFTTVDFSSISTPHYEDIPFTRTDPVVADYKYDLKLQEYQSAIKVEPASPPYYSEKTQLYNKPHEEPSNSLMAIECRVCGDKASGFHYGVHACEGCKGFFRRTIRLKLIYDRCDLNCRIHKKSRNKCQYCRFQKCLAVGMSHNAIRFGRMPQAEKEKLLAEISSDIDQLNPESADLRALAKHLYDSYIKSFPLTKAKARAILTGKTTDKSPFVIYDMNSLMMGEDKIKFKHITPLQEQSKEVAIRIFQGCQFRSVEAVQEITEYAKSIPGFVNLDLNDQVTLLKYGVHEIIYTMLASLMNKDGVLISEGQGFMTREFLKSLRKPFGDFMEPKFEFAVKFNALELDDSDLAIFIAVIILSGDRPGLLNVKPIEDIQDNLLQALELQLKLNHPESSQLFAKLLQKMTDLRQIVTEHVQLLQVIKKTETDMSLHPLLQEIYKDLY
# Protocol Summary: Agonist activity at human PPARgamma in human U2OS cells by cell based transactivation assay relative to rosiglitazone
# Format: functional
The source made the active and inactive calls. No cut-off for these calls is given here.
Property: Emax

COC(=O)Cc1c(C)n(C(=O)c2ccc(Cl)cc2)c2ccc(OCc3ccccc3)cc12 = inactive
Cc1c(CC(=O)O)c2cc(OCc3ccccc3)ccc2n1C(=O)c1ccc(Cl)cc1 = inactive
Cc1oc(-c2ccccc2)nc1CCOc1ccc2c(c1)c(CC(=O)O)c(C)n2C(=O)c1ccc(Cl)cc1 = 79%
Cc1oc(-c2ccc(-c3ccccc3)cc2)nc1CCOc1ccc2c(c1)c(CC(=O)O)c(C)n2C(=O)c1ccc(Cl)cc1 = 134%
COC(=O)Cc1c(C)n(C(=O)c2ccc(Cl)cc2)c2ccc(OCCc3nc(-c4ccc(-c5ccccc5)cc4)oc3C)cc12 = 141%

Q: Give the measured Emax of COC(=O)Cc1c(C)n(C(=O)c2ccc(Cl)cc2)c2ccc(OCCc3nc(-c4ccccc4)oc3C)cc12 .
Result: 74%

Q: Next up: O=C(O)Cc1ccc(OCc2ccccc2)cc1Nc1c(Cl)cccc1Cl
Result: 35%
